system: HCT-116 colon; assay: NCI-60 one-dose screen, 48 h; settings: 10 µM unless noted
Compounds without any hit were thinned out: in the full panel of roughly 83,000, 20% have a hit. Active and inactive are the calls of the source. The calls were made as follows: active = growth percent below 10; inactive = the rest.
Possible outcomes: y for active, n for inactive

input_smiles | target_desc | label
Cc1c(C)c([N+](=O)[O-])c(C)c([N+](=O)[O-])c1C | HCT-116 colon | n
CCOC(=O)CSc1nc2ccccc2c(=O)n1Cc1ccc(S(N)(=O)=O)cc1 | HCT-116 colon | n
Oc1ccc(C(c2ccc(O)cc2)c2ccc(Br)cn2)cc1 | HCT-116 colon | n
Cn1nc(CC#N)c2c(=N)n(N)cnc21 | HCT-116 colon | n
Cc1cc2nc3c4cc([N+](=O)[O-])ccc4n(CCN(C)C)c3nc2cc1C | HCT-116 colon | y
C/C(=N\NC(=O)CSc1nc2ccccc2c(=O)n1CCc1ccc(S(N)(=O)=O)cc1)c1ccccn1 | HCT-116 colon | n

* * *

Below, each entry is listed with its recorded growth.
tested on: A498 renal; experiment: NCI-60 one-dose screen, 48 h (100 = growth as untreated, 0 = no growth, -100 = all killed); settings: 10 µM unless noted
The panel holds about 83,000 compounds, 20% with a hit somewhere; the sample as a whole holds those more often.
quantity_kind: growth (%)

molecule | quantity_kind | endpoint_value
COc1cc(OC)cc(C(=O)C[n+]2cccc3cc[nH]c32)c1 | growth | 92.1
CCOC(=O)c1cc(C(=O)c2cc(OC)cc(OC)c2)n2ccc3ccccc3c12 | growth | 89.3
OC(c1ccc(F)c(C(F)(F)F)c1)c1cnccc1NC1CCCCC1 (stereo not drawn) | growth | 59.6

* * *

test system: SR leukemia; test: NCI-60 one-dose screen, 48 h; conditions: 10 µM unless noted
About 83,000 compounds went through this panel and 20% of them were active in at least one assay; those are over-represented in the sample as a whole. The source made the active and inactive calls. The calls were made as follows: active = growth percent below 10; inactive = the rest.
Possible outcomes: t (active), f (inactive)

compound | label
COc1cc(C=O)ccc1OC1OC(COC(C)=O)C(OC(C)=O)C(OC(C)=O)C1OC(C)=O (configuration not stated) | f
Cn1nc(CC#N)c2c(=N)n(N)cnc21 | f
O=[N+]([O-])c1cc(Br)c2cccc3c2c1CC3 | f
Fc1ccc2c(-c3cncn3CCc3ccccc3)c[nH]c2c1 | f
COc1cccc(-c2cc(C(=O)Nc3ccc(/C=C/c4ccc(OC5CCN(C)CC5)cc4)cc3)ccc2OC)c1 | t
Nc1n[nH]c2cccc(C#Cc3cccc(C(=O)Nc4cc(CN5CCOCC5)cc(C(F)(F)F)c4)c3)c12 | f
COc1ccc(C(=O)C2C(C#N)C(C#N)C3c4ccccc4C=CN23)cc1 (configuration not stated) | f
COc1ccc(OC)c(-c2cc(-c3ccc(Cl)cc3)c3c(N)c(C(=O)c4ccc(Cl)cc4)sc3n2)c1 | f
O=C(Nc1ccc(-c2ccc3c(c2)NC(=O)/C3=C\c2ccc[nH]2)cc1)NC1CC1 | f
COc1cc2nc(-c3ccc(C(F)(F)F)cc3)cc(OCCCN3CCCC3)c2cc1OC | f
O=C(CNCCN1CCOCC1)N1c2cccc3cccc(c23)N(C(=O)CNCCN2CCOCC2)C1c1cn(-c2ccccc2)nc1-c1cccc([N+](=O)[O-])c1 | t
COC(=O)C1=C(C(=O)ON)C2C=CC1(C(Cc1ccccc1)Nc1ccccc1)O2 (configuration not stated) | t
CC(Sc1nc2ccccc2c(=O)n1CCc1ccc(S(N)(=O)=O)cc1)C(=O)Nc1ccc(Cl)cc1 (configuration not stated) | f
Brc1ccc(Nc2csc(-c3ccccn3)n2)cc1 | f
N=C(N)c1ccc(OCCCCCCCCCCOc2ccc(C(=N)N)cc2)cc1 | t
O=S(=O)(NCCNc1nccc(-c2c(-c3cccc(O)c3)nc3occn23)n1)c1cccc(F)c1 | f
CCCCCCCCCCCCCCCC[N+]1(C)CCN(SN2CC[N+](C)(CCCCCCCCCCCCCCCC)CC2)CC1 | f
